Attribution: ChEMBL document CHEMBL3233003

Starred links: 1 amine or outer side, 2 acyl side, 3 side chain; linkers in the order of their positions; H or OH if unused. Non-standard residues stand in square brackets, D forms with d. Residues, ends and D or L forms follow the SMILES beside them. *: point of attachment. Lys(Me3) = C[N+](C)(C)CCCC[C@H](N)C(=O)O; Ethylenediamine = C(CN[*:2])N[*:1]; 3Pal = N[C@@H](Cc1cccnc1)C(=O)O; X6 = O=C(O)c1ccc(S(=O)(=O)*)cc1; X5 = c1ccc2[nH]c(N*)nc2c1; NHCH(CH2OH)2 = OCC(CO)N*; Boc = CC(C)(C)OC(=O)*; Bz = O=C(c1ccccc1)*
Dear all, this message contains pIC50 results, target or system Chromobox protein homolog 7 (Homo sapiens).
Give bare numbers, as −log10 of the molar value.

Worked cases, answers included:
CC(C)C[C@H](NC(=O)[C@H](C)NC(=O)c1ccccc1)C(=O)N[C@@H](CCCC[N+](C)(C)C)C(=O)N[C@@H](CO)C(N)=O (Bz-AL[Lys(Me3)]S-NH2) : 4.24
CC(=O)N[C@@H](Cc1ccccc1)C(=O)N[C@@H](C)C(=O)N[C@@H](CC(C)C)C(=O)N[C@@H](CCCC[N+](C)(C)C)C(=O)N[C@@H](CO)C(=O)O : 4.57
CC(=O)N[C@@H](Cc1ccccc1)C(=O)N[C@@H](C)C(=O)N[C@@H](Cc1cccnc1)C(=O)N[C@@H](CCCC[N+](C)(C)C)C(=O)N[C@@H](CO)C(N)=O (Ac-FA[3Pal][Lys(Me3)]S-NH2) : 4.96
CC(=O)N[C@@H](Cc1ccccc1)C(=O)N[C@@H](C)C(=O)N[C@@H](CC(C)C)C(=O)N[C@@H](CCCC[N+](C)(C)C)C(=O)NC(CO)CO (Ac-FAL[Lys(Me3)]-{NHCH(CH2OH)2}) : 4.64

Field: pIC50. Fill in for each record below.
1. CC(=O)N[C@@H](Cc1ccccc1)C(=O)N[C@@H](C)C(=O)N[C@@H](CC(C)C)C(=O)N[C@@H](CCCC[N+](C)(C)C)C(=O)NCCNC(=O)OC(C)(C)C (Ac-FAL[Lys(Me3)]-{Ethylenediamine-Boc})
2. CC(=O)N[C@@H](Cc1ccccc1)C(=O)N[C@@H](C)C(=O)N[C@@H](CC(C)C)C(=O)N[C@@H](CCCC[N+](C)(C)C)C(=O)Nc1nc2ccccc2[nH]1 (Ac-FAL[Lys(Me3)]-X5)
3. CC(C)C[C@H](NC(=O)[C@H](C)NC(=O)[C@H](Cc1ccccc1)NS(=O)(=O)c1ccc(C(=O)O)cc1)C(=O)N[C@@H](CCCC[N+](C)(C)C)C(=O)N[C@@H](CO)C(N)=O (X6-FAL[Lys(Me3)]S-NH2)
4. CC(=O)N[C@@H](Cc1ccccc1)C(=O)N[C@@H](C)C(=O)N[C@@H](Cc1ccccc1)C(=O)N[C@@H](CCCC[N+](C)(C)C)C(=O)N[C@@H](CO)C(N)=O (Ac-FAF[Lys(Me3)]S-NH2)

1. 3.98
2. 4.46
3. 5.17
4. 4.99
